# System: Salmonella typhimurium TA98 and TA100
# method: Reverse mutation test (Ames test), overall judgment
# Assay type: cell-based
# assay context: TA98 and TA100, regardless of addition of S9mix

| compound structure | Judgment in the Ames test (mutagenicity) |
| --- | --- |
| Oc1ccc(-c2cn3cc(I)ncc3n2)cc1 | negative |
| Oc1ccc(-c2cn3cc(I)ccc3n2)cc1 | negative |
| Oc1ccc(-c2cn3cc(Br)ccc3n2)cc1 | negative |
| Oc1ccc(-c2cn3cc(I)cnc3n2)cc1 | negative |

* * *

# method: Partition coefficient based on the octanol extraction method (logPoctanol)
# Format: physicochemical
# assay context: octanol / 10 mmol/L phosphate buffer (pH 7.4), radioactivity count
# Experimental: Using the obtained radioactivity count, logPoctanol was calculated in accordance with the equation (2).
Met if logPoctanol value is below 2. Not met if not; exact matches included in Not met.

Problem: Hello, I'm reviewing records and need to know if logPoctanol value of Oc1ccc(-c2cn3cc([123I])cnc3n2)cc1 [Compound 9] is below 2. Could you check?
Solution: Met

Problem: Field: below-cutoff. Rule: recorded logPoctanol value strictly less than 2. Subject: Oc1ccc(-c2cn3cc([125I])ccc3n2)cc1 [Compound 5]
Solution: Met

Problem: For Oc1ccc(-c2cn3cc([123I])ncc3n2)cc1 [Compound 10] , is the recorded logPoctanol value below the cut-off of 2?
Solution: Not met

Problem: Is logPoctanol value of CN(C)c1ccc(-c2cn3cc([125I])ccc3n2)cc1 [[^125I]-IMPY, reference compound] strictly below 2?
Solution: Not met

Problem: Does the reported logPoctanol value of the following molecule sit strictly below 2? Oc1ccc(-c2cn3cccc([123I])c3n2)cc1 [Compound 11]
Solution: Not met
